# assay_name: Pharmacokinetics of 29 in rats
# condition_details: male, Sprague-Dawley, rat, in vivo, po, 2 mg/kg
metric: AUC(0-inf)
Could you give the number and then its unit, please?

Lookup result for Cc1ccc2nc(N3CCC(NC4CCOCC4)CC3)c(-c3nc(C)no3)cc2c1 [Compound 29] ; measured AUC(0-inf): 28.4 ng·h/mL
